biological target: human muscarinic M4 receptor (Homo sapiens, UniProt P08173); construct: expressed in transfected cells; experiment: Alphascreen Surefire phospho-ERK1/2 functional assay, M4; format: cell-based; settings: CHO, read-out: % Emax cf. ACh, M4, CHO cells stably expressing human M4; relative to ACh
Sequence (P08173 whole entry): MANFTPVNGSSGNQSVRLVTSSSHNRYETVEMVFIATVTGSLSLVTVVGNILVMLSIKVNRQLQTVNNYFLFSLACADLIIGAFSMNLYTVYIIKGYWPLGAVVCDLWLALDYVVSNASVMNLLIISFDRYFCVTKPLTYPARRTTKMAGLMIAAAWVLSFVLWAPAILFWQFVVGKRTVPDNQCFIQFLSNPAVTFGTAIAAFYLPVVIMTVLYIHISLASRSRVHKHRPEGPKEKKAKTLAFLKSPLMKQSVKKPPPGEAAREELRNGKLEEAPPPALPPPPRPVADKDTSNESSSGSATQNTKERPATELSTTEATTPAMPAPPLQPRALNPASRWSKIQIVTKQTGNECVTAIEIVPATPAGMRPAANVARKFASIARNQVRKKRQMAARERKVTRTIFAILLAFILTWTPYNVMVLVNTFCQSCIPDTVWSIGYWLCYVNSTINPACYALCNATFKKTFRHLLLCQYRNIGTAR
Experimental Endpoint: Emax (%)

Sample records with Emax:
Molecule | Value Units | Reported
CCOC(=O)N1CCC2(CC(N3CCC([C@@H]4CCCN4C(=O)NCC(F)(F)F)CC3)C2)C1 (single isomer, unassigned) [2-26 Isomer 2] | % | 99
CCOC(=O)N1CCC2(CC(N3CCC(N4C(=O)OC[C@H]4C(C)C)CC3)C2)C1 (single isomer, unassigned) [2-120 Isomer 2] | % | 87

[P] COC(=O)N1CCC2(CC(N3CCC([C@@H]4CCCN4c4ccccn4)CC3)C2)C1 (single isomer, unassigned) [2-78 Isomer 2]
[Q] CCOC(=O)N1CCC2(CC(N3CCC([C@@H]4CCCN4C(=O)N4CCC(F)(F)C4)CC3)C2)C1 (single isomer, unassigned) [2-37 Isomer 2]
INPUT: Could you point out whether the larger Emax belongs to P or to Q ? Your answer should be the label attached to the chosen record.
OUTPUT: Q

====

molecular target: human muscarinic M4 receptor (Homo sapiens); construct: expressed in transfected cells; assay: Alphascreen Surefire phospho-ERK1/2 functional assay, M4; assay type: cell-based; conditions: CHO, read-out: % Emax cf. ACh, M4, CHO cells stably expressing human M4; relative to ACh
Experimental Endpoint: Emax (%)

Sample records with Emax:
Compound | Experimental Endpoint | Reported
CCOC(=O)N1CCC2(CC(N3CCC(N4CC(F)(F)C[C@@H]4C(C)O)CC3)C2)C1 (single isomer, unassigned) [2-109 Isomer 2] | Emax | 91
CCOC(=O)N1CCC2(CC(N3CCC(C4CCCN(CC)C4=O)CC3)C2)C1 (single isomer, unassigned) [4-5 Isomer 2] | Emax | 60
CCOC(=O)N1CCC2(CC(N3CCC(N4C(=O)OC[C@@H]4C(C)C)CC3)C2)C1 (single isomer, unassigned) [2-123 Isomer 2] | Emax | 93

[P] CCOC(=O)N1CCC2(CC(N3CCC(N4C(=O)OC[C@@H]4CC)CC3)C2)C1 (single isomer, unassigned) [2-122 Isomer 2]
[Q] CCOC(=O)N1CCC2(CC(N3CCC(n4nccn4)CC3)C2)C1 (single isomer, unassigned) [1-61 Isomer 2]
[R] CCOC(=O)N1CCC2(CC(N3CCC([C@@H]4CCCN4CC)CC3)C2)C1 (single isomer, unassigned) [2-61 Isomer 2]
INPUT: # sort list by recorded Emax, greatest to least // ordering of labels required in reply
OUTPUT: Q, P, R
(Q: 97%, P: 60%, R: 40%)

[1] COC(=O)N1CCC2(CC(N3CCC(c4nc(C)cn4C)CC3)C2)C1 (single isomer, unassigned) [1-11 Isomer 2]
[2] CCOC(=O)N1CCC2(CC(N3CCC(c4nnc(CC)[nH]4)CC3)C2)C1 (single isomer, unassigned) [1-27 Isomer 2]
INPUT: Among 1 and 2 , whose measured Emax is the smaller figure? Your answer should be the label attached to the chosen record.
OUTPUT: 2

====

target: human muscarinic M1 receptor (Homo sapiens); test: Alphascreen Surefire phospho-ERK1/2 functional assay, M1; format: cell-based; details: CHO cells stably expressing human M1; phospho-ERK1/2; * = variable results; read-out: pEC50 M1 (converted)
Sequence (P11229 whole entry): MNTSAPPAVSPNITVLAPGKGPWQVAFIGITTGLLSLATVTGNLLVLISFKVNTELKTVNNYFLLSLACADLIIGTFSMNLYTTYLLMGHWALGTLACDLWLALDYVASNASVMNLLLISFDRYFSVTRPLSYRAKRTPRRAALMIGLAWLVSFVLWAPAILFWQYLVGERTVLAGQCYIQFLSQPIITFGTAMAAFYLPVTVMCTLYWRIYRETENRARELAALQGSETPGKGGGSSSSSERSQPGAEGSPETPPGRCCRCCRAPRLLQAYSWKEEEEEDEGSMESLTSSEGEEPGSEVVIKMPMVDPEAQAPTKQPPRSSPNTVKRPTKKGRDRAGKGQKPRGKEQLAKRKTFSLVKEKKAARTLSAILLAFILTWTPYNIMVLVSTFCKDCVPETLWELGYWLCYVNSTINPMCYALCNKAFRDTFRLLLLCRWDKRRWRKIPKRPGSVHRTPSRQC
Experimental Endpoint: EC50 (nM)

[a] CCOC(=O)N1CCC2(CC(N3CCC(C4CC(C)CNC4=O)CC3)C2)C1 (single isomer, unassigned) [4-4 Isomer 2]
[b] CCOC(=O)N1CCC2(CC(N3CCC(c4nn(C)cc4C)CC3)C2)C1 (single isomer, unassigned) [1-56 Isomer 2]
[c] CCOC(=O)N1CCC2(CC(N3CCC(C4CCCN(CC)C4=O)CC3)C2)C1 (single isomer, unassigned) [4-5 Isomer 2]
INPUT: Order all 3 entries above by recorded EC50, highest first, lowest last. // ordering of labels required in reply
OUTPUT: b, c, a
